- TEST DETAILS: Solubility in aqueous solutions
- Type: physicochemical
- RECORDED CONDITIONS: over a wide range of pH values, completely soluble
Non-standard residues stand in square brackets, D forms with d. Residues, ends and D or L forms follow the SMILES beside them. NMeR = CN[C@@H](CCCNC(=N)N)C(=O)O; NMeF = CN[C@@H](Cc1ccccc1)C(=O)O; NMeL = CN[C@@H](CC(C)C)C(=O)O
QUANTITY NAME: solubility

### Prompt Suppose we examine the compound CC(=O)N[C@@H](CCCNC(=N)N)C(=O)N(C)[C@@H](CCCNC(=N)N)C(=O)N[C@@H](CC(C)C)C(=O)N(C)[C@@H](CC(C)C)C(=O)N[C@@H](Cc1ccccc1)C(=O)N(C)[C@@H](Cc1ccccc1)C(N)=O [Peptide X] (Ac-R[NMeR]L[NMeL]F[NMeF]-NH2) ; what solubility value has been reported?
### Response ≥ 10 mM
